Reported pIC50 by item:
# Target system: Angiotensin-converting enzyme (Homo sapiens)
Value format note: pIC50 is -log10 of concentration (mol/L); just state the number.

- Compound: "O=c1c2cc(O)c(O)cc2oc2cc(O)cc(O)c12"
  Target system: "Angiotensin-converting enzyme (Homo sapiens)"
  pIC50: 3.28

[Q] What does the data say about its pIC50? Entry: `O=c1c2ccc(O)c(O)c2oc2cc(O)cc(O)c12`
[A] 4.16

====

# Target system: Angiotensin-converting enzyme (Homo sapiens, UniProt P12821)
# Sequence (P12821 whole entry): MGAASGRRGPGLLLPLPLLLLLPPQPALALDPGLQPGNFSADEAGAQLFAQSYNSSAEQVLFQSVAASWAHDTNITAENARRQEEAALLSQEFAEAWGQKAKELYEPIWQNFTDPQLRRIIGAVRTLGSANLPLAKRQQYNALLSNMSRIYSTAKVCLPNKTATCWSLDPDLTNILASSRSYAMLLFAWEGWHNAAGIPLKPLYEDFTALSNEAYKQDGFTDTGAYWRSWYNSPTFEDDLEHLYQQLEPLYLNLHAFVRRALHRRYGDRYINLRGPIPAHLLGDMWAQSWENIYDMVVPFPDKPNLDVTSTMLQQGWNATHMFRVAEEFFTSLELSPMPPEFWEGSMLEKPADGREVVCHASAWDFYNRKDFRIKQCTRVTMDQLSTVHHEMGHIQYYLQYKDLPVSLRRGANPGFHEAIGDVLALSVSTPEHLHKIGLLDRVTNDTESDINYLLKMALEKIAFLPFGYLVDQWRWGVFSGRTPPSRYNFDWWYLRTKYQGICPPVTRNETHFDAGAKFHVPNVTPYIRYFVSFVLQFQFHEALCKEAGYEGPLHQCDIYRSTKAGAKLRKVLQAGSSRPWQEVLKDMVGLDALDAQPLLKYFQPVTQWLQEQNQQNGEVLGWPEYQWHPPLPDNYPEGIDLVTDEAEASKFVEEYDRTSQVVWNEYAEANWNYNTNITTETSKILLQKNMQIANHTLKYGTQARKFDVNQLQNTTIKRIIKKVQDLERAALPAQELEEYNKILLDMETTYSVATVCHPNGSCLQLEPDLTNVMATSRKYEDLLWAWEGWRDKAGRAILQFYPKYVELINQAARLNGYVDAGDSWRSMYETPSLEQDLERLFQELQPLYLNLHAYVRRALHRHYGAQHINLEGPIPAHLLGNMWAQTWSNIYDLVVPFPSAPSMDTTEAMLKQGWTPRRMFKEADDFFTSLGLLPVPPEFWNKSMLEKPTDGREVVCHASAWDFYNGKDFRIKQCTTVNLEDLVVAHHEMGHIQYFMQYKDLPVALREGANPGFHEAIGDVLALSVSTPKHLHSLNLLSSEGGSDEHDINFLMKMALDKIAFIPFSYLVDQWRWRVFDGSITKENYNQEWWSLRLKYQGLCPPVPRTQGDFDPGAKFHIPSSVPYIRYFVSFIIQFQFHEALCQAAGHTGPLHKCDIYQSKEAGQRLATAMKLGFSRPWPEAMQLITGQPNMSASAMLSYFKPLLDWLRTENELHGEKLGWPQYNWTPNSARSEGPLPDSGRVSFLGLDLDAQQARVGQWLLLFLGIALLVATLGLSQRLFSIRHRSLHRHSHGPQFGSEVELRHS
# Assay summary: Inhibition of ACE at 400 uM
# if value of inhibition reaches 60%, tag criterion met; if it stays below, tag criterion not met

Please review the entries below; each comes with its answer.
- Compound: "O=c1c2ccc(O)c(O)c2oc2c(O)c(O)ccc12"
  Group: "criterion not met"
- Compound: "O=c1c2cc(O)c(O)cc2oc2cc(O)cc(O)c12"
  Group: "criterion not met"
- Compound: "O=c1c2cc(O)c(O)cc2oc2cc(O)c(O)cc12"
  Group: "criterion not met"
- Compound: "O=c1c2cc(O)c(O)cc2oc2c(O)c(O)ccc12"
  Group: "criterion met"

Switching to the query record.
[Q] Does the compound `O=c1c2ccc(O)c(O)c2oc2cc(O)cc(O)c12` have recorded inhibition that is 60% or more?
[A] criterion met

All figures here come from ChEMBL document CHEMBL1159033.
